Hello, the source for this data is ChEMBL document CHEMBL1765038, in case you need it.

system: HCT-116; test: Cytotoxicity against human HCT116 cells by MTT assay; type: functional, cell-based
Calls of active or inactive are those of the source. The rule behind the calls is not given here.
endpoint name: Activity

Field: example entries. Status: answers known.
C/C1=C/[C@]2(O)OC[C@@]3(C)O[C@]32CC[C@](C)(O)/C=C/C[C@@](C)(O)[C@@H](O)CC1 | inactive
CC1=C2CC/C(C)=C/CC[C@@]3(C)O[C@H]3CC[C@](C)(O)/C=C/2OC1=O | inactive
C/C1=C\[C@@H]2O[C@@H](O)[C@@]3(C)O[C@@]23CC/C(C)=C/CC[C@@]2(C)O[C@H]2CC1 | inactive
C/C1=C\[C@]2(O)OC[C@@]3(C)O[C@]32CC[C@](C)(O)/C=C/C[C@@]2(C)O[C@H]2CC1 | inactive

Now consider a different compound.
Req: Data request, read-out Activity, for `C=C1CO[C@H]2/C=C(\C)CC[C@@H]3O[C@]3(C)CC/C=C(\C)CC[C@@]12O`
Resp: inactive

* * *

test system: HL-60; assay: Cytotoxicity against human HL60 cells by MTT assay; type: functional, cell-based
Returns: string. Value is T if measured IC50 is below 30 µM, and F if it is greater than or equal to it.

O=C1c2c(O)ccc(O)c2C(=O)c2c(NCCNCCO)ccc(NCCNCCO)c21 | T
COC(=O)[C@]12CC(=O)[C@H](C(C)C)CC(=O)[C@H](C)CCC[C@H](C)CC(=O)[C@H]1CC(C)=C1C[C@H](OC(C)=O)[C@](C)(O)[C@H]3CC[C@@](C)(O)[C@H](CC/C(C)=C/[C@@H]12)O3 [NYALOLIDE] | T
CC1=C2CC/C(C)=C/CC[C@]3(C)O[C@H]3CC/C(C)=C/[C@@H]2OC1=O | F
COC(=O)/C1=C\C=C(\C(C)C)CCC2=CCC[C@](C)(OC2=O)[C@@H](OC(C)=O)CC1 [EMBLIDE] | F
COC(=O)[C@@]12CC(=O)[C@@H](C(C)C)CC(=O)[C@@H](C)CCC[C@@H](C)CC(=O)C1CC(C)=C1C2/C=C(\C)CCC2OC(CC[C@]2(C)OC(C)=O)[C@](C)(O)C[C@H]1O (stereo partly specified) [XIMAOLIDE F] | T

Kindly consider the entry below.
Req: Regarding COC(=O)[C@@]12CC(=O)[C@@H](C(C)C)CC(=O)[C@@H](C)CCC[C@@H](C)CC(=O)[C@@H]1CC(C)=C1[C@@H]3C[C@@](C)(O)[C@H](CC[C@@H](C)C(=O)CC/C(C)=C/[C@H]12)O3 [METHYL TORTUOATE B] , kindly confirm whether its IC50 is beneath 30 µM.
Resp: T
